Below is a list of entries, each paired with its recorded NanoBRET Abs IC50 value.
# target_of_assay: T1, B-cat-Halo (beta-catenin HaloTag NanoBRET construct expressed in HEK293 cells) (UniProt P35222 1-781)
# T1 sequence (looked up): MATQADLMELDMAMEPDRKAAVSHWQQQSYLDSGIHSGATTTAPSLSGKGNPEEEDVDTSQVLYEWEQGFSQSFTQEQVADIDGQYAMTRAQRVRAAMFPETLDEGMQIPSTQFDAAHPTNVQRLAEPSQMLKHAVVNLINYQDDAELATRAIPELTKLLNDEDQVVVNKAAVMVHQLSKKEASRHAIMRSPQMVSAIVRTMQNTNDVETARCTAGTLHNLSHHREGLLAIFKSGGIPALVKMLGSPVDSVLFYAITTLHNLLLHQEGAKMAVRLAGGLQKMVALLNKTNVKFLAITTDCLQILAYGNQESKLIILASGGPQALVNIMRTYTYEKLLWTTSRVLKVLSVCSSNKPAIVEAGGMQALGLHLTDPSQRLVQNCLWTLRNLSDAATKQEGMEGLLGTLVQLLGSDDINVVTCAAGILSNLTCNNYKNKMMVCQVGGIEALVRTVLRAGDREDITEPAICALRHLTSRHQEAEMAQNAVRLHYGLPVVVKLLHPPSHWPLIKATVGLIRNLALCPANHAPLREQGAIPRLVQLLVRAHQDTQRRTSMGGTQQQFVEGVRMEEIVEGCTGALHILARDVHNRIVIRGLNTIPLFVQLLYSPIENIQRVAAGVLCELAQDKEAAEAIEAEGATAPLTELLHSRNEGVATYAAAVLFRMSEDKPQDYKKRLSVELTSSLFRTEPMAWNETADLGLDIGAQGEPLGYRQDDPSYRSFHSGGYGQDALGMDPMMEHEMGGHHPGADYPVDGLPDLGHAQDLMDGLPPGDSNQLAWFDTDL
# assay_name: cell-based or functional assay
Starred links: 1 amine or outer side, 2 acyl side, 3 side chain; linkers in the order of their positions; H or OH if unused. Positions of bridges follow the written chain, without caps; N, C: chain ends. Non-standard residues stand in square brackets, D forms with d. Primed or numbered codes have the meaning given here. B5(15) = 2-amino-2-(pent-4-en-1-yl)hept-6-enoic acid (2,2-bis(4-pentenyl)glycine), stitching residue bearing two staples, C=CCCCC(CCCC=C)(N[*:1])C(=O)[*:2]; B5(23) = 2-amino-2-(pent-4-en-1-yl)hept-6-enoic acid (2,2-bis(4-pentenyl)glycine), stitching residue, C=CCCCC(CCCC=C)(N[*:1])C(=O)[*:2]; PyrS2 = (S)-3-amino-1-((pent-4-en-1-yloxy)carbonyl)pyrrolidine-3-carboxylic acid, C=CCCCOC(=O)N1CC[C@@](N[*:1])(C(=O)[*:2])C1; Bta = N[C@@H](Cc1csc2ccccc12)C(=O)O; αAllylPro = C=CC[C@@]1(C(=O)O)CCCN1; tBuAla = CC(C)(C)C[C@H](N)C(=O)O; 3Thi = N[C@@H](Cc1ccsc1)C(=O)O; S8 = C=CCCCCCC[C@](C)(N)C(=O)O; hLeu = CC(C)CC[C@H](N)C(=O)O; hSer = N[C@@H](CCO)C(=O)O

binder	unit_annotation	rel	NanoBRET Abs IC50
Ac-[αAllylPro]D[hLeu][B5(15)]DEAAF[hSer][S8]F[Bta]Q-NH2 (staple 1-4, 4-11; not fully specified; printed as Ac-PL3-Asp-Hleu-B5-Asp-Glu-Ala-Ala-Phe-Hse-S8-Phe-BztA-Gln-NH2) [I-1537]	µM	=	13.9
Ac-[αAllylPro]DK[B5(23)]DEAAFL[S8]F[Bta]Q-NH2 (staple 1-4, 4-11, Stapled peptide composition; also called Ac-PL3-Asp-Lys-B5-Asp-Glu-Ala-Ala-Phe-Leu-S8-Phe-BztA-Gln-NH2) [I-1553]	µM	>	20
Ac-[αAllylPro]D[tBuAla][B5(23)]NNAAFN[PyrS2][3Thi][Bta]Q-NH2 (staple 1-4, 4-11) [I-1555]	µM	=	29.3
Ac-[αAllylPro]DK[B5(23)]DEAAFQ[S8]F[Bta]Q-NH2 (staple 1-4, 4-11, Stapled peptide composition; also called Ac-PL3-Asp-Lys-B5-Asp-Glu-Ala-Ala-Phe-Gln-S8-Phe-BztA-Gln-NH2) [I-1552]	µM	>	20
Ac-[αAllylPro]DQ[B5(15)]DEAAF[hSer][S8]F[Bta]Q-NH2 (staple 1-4, 4-11; not fully specified; printed as Ac-PL3-Asp-Gln-B5-Asp-Glu-Ala-Ala-Phe-Hse-S8-Phe-BztA-Gln-NH2) [I-1543]	µM	>	20
Ac-[αAllylPro]DF[B5(15)]DEAAFQ[S8]F[Bta]Q-NH2 (staple 1-4, 4-11) [I-1549]	µM	=	11.6
Ac-[αAllylPro]D[hLeu][B5(15)]DEAAFL[S8]F[Bta]Q-NH2 (staple 1-4, 4-11) [I-1536]	µM	=	18.4
XDQXDEAAFQXFXQ (not fully specified; N-terminal Ac; PL3 at 1, B5 at 4, S8 at 11 (staples PL3-B5 and B5-S8 by olefin metathesis); BztA at 13; C-terminal NH2, Stapled peptide composition; Same description as I-1539; later eluting HPLC peak (staple isomer); also called Ac-PL3-Asp-Gln-B5-Asp-Glu-Ala-Ala-Phe-Gln-S8-Phe-BztA-Gln-NH2) [I-1540]	µM	=	42.4
XDSXDEAAFQXFXQ (not fully specified; N-terminal Ac; PL3 at 1, B5 at 4, S8 at 11 (staples PL3-B5 and B5-S8 by olefin metathesis); Hse at 3; BztA at 13; C-terminal NH2, Stapled peptide composition; later eluting HPLC peak (staple isomer); also called Ac-PL3-Asp-Hse-B5-Asp-Glu-Ala-Ala-Phe-Gln-S8-Phe-BztA-Gln-NH2) [I-1545]	µM	>	20
XDSXDEAAFQXFXQ (not fully specified; N-terminal Ac; PL3 at 1, B5 at 4, S8 at 11 (staples PL3-B5 and B5-S8 by olefin metathesis); Hse at 3; BztA at 13; C-terminal NH2, Stapled peptide composition; earlier eluting HPLC peak (staple isomer); also called Ac-PL3-Asp-Hse-B5-Asp-Glu-Ala-Ala-Phe-Gln-S8-Phe-BztA-Gln-NH2) [I-1544]	µM	>	20
Ac-[αAllylPro]DN[B5(15)]DEAAFL[S8]F[Bta]Q-NH2 (staple 1-4, 4-11, Stapled peptide composition; also called Ac-PL3-Asp-Asn-B5-Asp-Glu-Ala-Ala-Phe-Leu-S8-Phe-BztA-Gln-NH2) [I-1533]	µM	>	20
Ac-[αAllylPro]D[hSer][B5(15)]DEAAFL[S8]F[Bta]Q-NH2 (staple 1-4, 4-11, Stapled peptide composition; also called Ac-PL3-Asp-Hse-B5-Asp-Glu-Ala-Ala-Phe-Leu-S8-Phe-BztA-Gln-NH2) [I-1546]	µM	=	37.9
XDQXDEAAFQXFXQ (not fully specified; N-terminal Ac; PL3 at 1, B5 at 4, S8 at 11 (staples PL3-B5 and B5-S8 by olefin metathesis); BztA at 13; C-terminal NH2, Stapled peptide composition; earlier eluting HPLC peak (staple isomer); also called Ac-PL3-Asp-Gln-B5-Asp-Glu-Ala-Ala-Phe-Gln-S8-Phe-BztA-Gln-NH2) [I-1539]	µM	>	20
Ac-[αAllylPro]DF[B5(23)]DEAAF[hSer][S8]F[Bta]Q-NH2 (staple 1-4, 4-11, Stapled peptide composition; also called Ac-PL3-Asp-Phe-B5-Asp-Glu-Ala-Ala-Phe-Hse-S8-Phe-BztA-Gln-NH2) [I-1551]	µM	=	19.8
XDNXDEAAFQXFXQ (not fully specified; N-terminal Ac; PL3 at 1, B5 at 4, S8 at 11 (staples PL3-B5 and B5-S8 by olefin metathesis); BztA at 13; C-terminal NH2, Stapled peptide composition; Same description as I-1531; separate, later eluting HPLC peak (staple isomer); also called Ac-PL3-Asp-Asn-B5-Asp-Glu-Ala-Ala-Phe-Gln-S8-Phe-BztA-Gln-NH2) [I-1532]	µM	>	20
Ac-[αAllylPro]D[hSer][B5(15)]DEAAF[hSer][S8]F[Bta]Q-NH2 (staple 1-4, 4-11; not fully specified) [I-1548]	µM	>	20
Ac-[αAllylPro]DQ[B5(15)]DEAAF[hSer][S8]F[Bta]Q-NH2 (staple 1-4, 4-11; not fully specified; printed as Ac-PL3-Asp-Gln-B5-Asp-Glu-Ala-Ala-Phe-Hse-S8-Phe-BztA-Gln-NH2) [I-1542]	µM	=	49.1
Ac-[αAllylPro]D[hLeu][B5(15)]DEAAF[hSer][S8]F[Bta]Q-NH2 (staple 1-4, 4-11; not fully specified; printed as Ac-PL3-Asp-Hleu-B5-Asp-Glu-Ala-Ala-Phe-Hse-S8-Phe-BztA-Gln-NH2) [I-1538]	µM	=	11.8
Ac-[αAllylPro]DN[B5(15)]DEAAF[hSer][S8]F[Bta]Q-NH2 (staple 1-4, 4-11; not fully specified; printed as Ac-PL3-Asp-Asn-B5-Asp-Glu-Ala-Ala-Phe-Hse-S8-Phe-BztA-Gln-NH2, Stapled peptide composition; Same description as I-1535; earlier eluting HPLC peak (staple isomer); also called Ac-PL3-Asp-Asn-B5-Asp-Glu-Ala-Ala-Phe-Hse-S8-Phe-BztA-Gln-NH2) [I-1534]	µM	>	20
